Would you kindly list IC90 for each of these compounds?
- Tested on: M. tuberculosis H37Rv growth inhibition, 7H9 media
- measurement_description: M. tuberculosis growth inhibition, HTS (AID 449762);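 also: bacterial growth assessed after seven days of incubation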
- applied_conditions: measured here: IC90 growth inhibition
Inconclusive results are not listed.
One number for each entry, in µM.

# count of solved cases: 3
COc1ccc(N=c2cc(-c3ccc(O)cc3)oc3ccccc23)cc1    25.8
CC(=O)c1ccc(N2CCC(c3cc(-c4ccc(Cl)cc4Cl)n[nH]3)CC2)c([N+](=O)[O-])c1    26.1
CCCCCCCNC1=CC(=O)CC(c2ccccc2)C1 (stereo unspecified)    53.9

Need IC90 for each of these compounds.
1. Cc1ccc(CNc2ccc3c(c2)ncn3C(C)(C)C)cc1
2. O=C(Nc1nnc(-c2ccccc2)o1)c1cc(-c2cccs2)nc2ccccc12
3. O=C(OCn1nnc2ccccc2c1=O)C1CCCCC1

1: 14.8; 2: 2.25; 3: 7.16

Need IC90 for each of these compounds.
1. Cc1ccc(S(=O)(=O)N(C)c2ccc(OCC(=O)OCc3ccc(C#N)cc3)cc2)cc1
2. Cn1ncnc2c(=O)n(C)c(=O)nc1-2
3. CC(C)(C)c1ccc(C(=O)NC(=S)NNC(=O)COc2ccccc2)cc1

13.8
2.62
8.56

Need IC90 for each of these compounds.
1. COC(=O)c1ccc(NC(=S)NC(=O)C2CCC2)cc1
2. COc1ccc(CNc2ncnc3c2[nH]c2cc(OC)c(OC)cc23)cc1

1: 55.9; 2: 14.9

---

- System: M. tuberculosis H37Rv growth inhibition, 7H9 media
- measurement_description: M. tuberculosis growth inhibition, HTS (AID 449762);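 also: bacterial growth assessed after seven days of incubation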
- applied_conditions: measured here: IC90 growth inhibition
Records with an inconclusive call do not appear.
observed_property: IC90 (µM)
Answers are plain numbers, in µM.

# count of solved cases: 8
O=C(C1CC1)N1CCCC(c2ccc(Cl)cc2)=N1    50.2
O=c1c(Cl)nc2cc(Cl)ccc2n1CCNc1ncc(C(F)(F)F)cc1Cl    3.89
CCOC(=O)CSc1nn(-c2ccccc2)c(=S)s1    9.22
Cc1nc(N2CCN(c3ccccn3)CC2)c2c(C)c(C(=O)N3CCN(c4ccc(F)cc4)CC3)sc2n1    12.5
C=CCN(C(=O)CSc1nc2c(sc3ccccc32)c(=O)n1CCN(CC)CC)c1ccccc1    36
N#Cc1nc(-c2ccc(OCc3ccccc3)cc2)oc1NCCCn1ccnc1    35.5
C#CCOCCOCCOCCNc1nc(N2CCN(C(=O)CCCCCCCCCCNC(=O)[C@H](CCCCN)n3cc(CCCC(=O)O)nn3)CC2)nc(N2CCN(C(=O)CCCCCCCCCCNC(=O)[C@H](CCCN=C(N)N)n3cc(C[C@@H](C)CC)nn3)CC2)n1    5.97
COc1ccc(-n2nc3c(c2NC(=O)CCl)CSC3)cc1    9.39

Let's switch to this compound now.
Assay M. tuberculosis H37Rv growth inhibition, 7H9 media, sample Cc1ccc(C)c(N2CCN(C(=O)c3ccc4nc(N5CCOCC5)sc4c3)CC2)c1 , IC90 read: 47.4

---

- System: M. tuberculosis H37Rv growth inhibition, 7H9 media
- measurement_description: M. tuberculosis growth inhibition, HTS (AID 449762);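 also: bacterial growth assessed after seven days of incubation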
- applied_conditions: measured here: IC90 growth inhibition
Inconclusive results are not listed.
Would you kindly list IC90 for each of these compounds?
One number for each entry, in µM.

# count of solved cases: 8
CCc1cc(OCCCCNCc2ccccc2)ccc1Cl    30.4
CC[n+]1c(/C=C/N(C)c2ccccc2)n(-c2ccccc2)c2ccc(-c3nc4ccccc4s3)cc21    1.27
Oc1ccccc1NCC(O)Cn1ccc2ccccc21 (stereo unspecified)    8.32
Cc1nn(-c2nc3ccccc3[nH]2)c(N)c1-c1ccc(Cl)cc1    2.6
Cc1ccc(-n2nc3c(N4CCC(C(=O)NCc5ccccc5C)CC4)nnc(C)c3c2C)cc1    69
COc1ccc(Nc2nc(N3CCCCC3)nc3ccccc23)c(OC)c1    26.5
CSCCC1NC(=O)N(CC(=O)N2N=C(c3ccc(Cl)cc3)CC2c2ccco2)C1=O (stereo unspecified)    16
Cc1cc(C)n(C(=O)c2ccc([N+](=O)[O-])cc2[N+](=O)[O-])n1    8.45

Let's switch to this compound now.
Assay M. tuberculosis H37Rv growth inhibition, 7H9 media, sample CCCCC(CC)CN=C(N)NC(N)=NCCCCCCN=C(N)NC(N)=NCC(CC)CCCC (stereo unspecified) , IC90 read: 4.76
